Values from patent US20220110919A1

Molecular target: NEU4 (Homo sapiens, UniProt Q8WWR8)
Construct: GST; made in house; host or cells: E. coli
Assay: Inhibition assay, 4MU-NANA cleavage, NEU4
Format: biochemical
Conditions: compounds of Table I; read-out: IC50 against neu4
Experimental: 4MU-NANA was then added to the mixture, making the final concentration of 4MU-NANA as 50 μM and the total volume of the reaction mixture as 20 μL. […] Assays were performed with duplicates for each point and IC50 was obtained by plotting the data with Graphpad™ Prism 5.0.
pIC50: −log10 of the molar value.
OBSERVABLE: pIC50

Lab book: pIC50 of CC(=O)N[C@@H]1C(O)C=C(C(=O)O)OC1C(O)C(O)Cn1cc(-c2ccc(-c3ccccc3)cc2)nn1 (stereo partly drawn) [7i] noted as > 6.00

Lab book: pIC50 of CC(=O)N[C@@H]1C(O)C=C(C(=O)O)OC1C(O)C(O)Cn1cc(-c2ccc(NC(=O)c3ccccc3)cc2)nn1 (stereo partly drawn) [compound 27] noted as ≥ 5.00

Lab book: pIC50 of COc1ccc(-c2cn(C[C@@H](O)[C@@H](O)[C@@H]3OC(C(=O)O)=C[C@H](O)[C@H]3NC(C)=O)nn2)cc1 [7e] noted as ≥ 5.52

Lab book: pIC50 of CCCCCc1cn(C[C@@H](O)[C@@H](O)[C@@H]2OC(C(=O)O)=C[C@H](O)[C@H]2NC(C)=O)nn1 [compound 63] noted as ≥ 5.52

Lab book: pIC50 of [N-]=[N+]=NCC(=O)N[C@@H]1C(O)C=C(C(=O)O)OC1C(O)C(O)CO (stereo partly drawn) [compound 40] noted as ≥ 5.00

Lab book: pIC50 of CC(=O)N[C@@H]1C(O)C=C(C(=O)O)OC1C(O)C(O)Cn1cc(-c2ccc(C(=O)O)cc2)nn1 (stereo partly drawn) [7h] noted as ≥ 5.52

* * *

Please provide measured IC50 for the entries that follow.
Target: NEU4 (Homo sapiens)
Construct: GST; made in house; host or cells: E. coli
Sequence (Q8WWR8 1-484): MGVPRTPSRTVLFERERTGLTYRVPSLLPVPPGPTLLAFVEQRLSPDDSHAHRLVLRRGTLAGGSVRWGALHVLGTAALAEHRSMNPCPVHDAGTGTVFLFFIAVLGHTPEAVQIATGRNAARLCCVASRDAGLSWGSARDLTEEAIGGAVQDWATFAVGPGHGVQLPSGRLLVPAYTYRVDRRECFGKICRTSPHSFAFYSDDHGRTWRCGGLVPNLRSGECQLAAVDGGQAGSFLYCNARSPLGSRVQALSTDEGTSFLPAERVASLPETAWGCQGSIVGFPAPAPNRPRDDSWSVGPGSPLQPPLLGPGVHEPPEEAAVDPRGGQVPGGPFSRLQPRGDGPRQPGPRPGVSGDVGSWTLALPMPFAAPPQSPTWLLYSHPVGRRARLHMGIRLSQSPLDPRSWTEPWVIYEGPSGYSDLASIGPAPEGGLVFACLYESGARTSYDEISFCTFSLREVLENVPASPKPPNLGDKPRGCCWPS
Experiment: Inhibition assay, 4MU-NANA cleavage, NEU4
Assay type: biochemical
Settings: compounds of Table I; read-out: IC50 against neu4

Lab book: IC50 of CC(=O)N[C@@H]1C(O)C=C(C(=O)O)OC1C(O)C(O)Cn1cc(CNC(=O)c2ccccc2)nn1 (stereo partly shown) [compound 26] noted as ≤ 3 µM

Lab book: IC50 of CC(=O)N[C@H]1[C@H]([C@H](O)[C@H](O)Cn2cc(-c3ccc(F)cc3)nn2)OC(C(=O)O)=C[C@@H]1O [7f] noted as ≤ 3 µM

Lab book: IC50 of CC(=O)N[C@H]1[C@H]([C@H](O)[C@H](O)Cn2cc(-c3ccc(C(F)(F)F)cc3)nn2)OC(C(=O)O)=C[C@@H]1O [7g] noted as ≤ 10 µM

Lab book: IC50 of CCCC(=O)N[C@H]1[C@H]([C@H](O)[C@H](O)CO)OC(C(=O)O)=C[C@@H]1O [compound 30] noted as ≤ 10 µM
